- experimental_system: human PAI-1 (Homo sapiens, UniProt P05121)
- Sequence (P05121 24-402): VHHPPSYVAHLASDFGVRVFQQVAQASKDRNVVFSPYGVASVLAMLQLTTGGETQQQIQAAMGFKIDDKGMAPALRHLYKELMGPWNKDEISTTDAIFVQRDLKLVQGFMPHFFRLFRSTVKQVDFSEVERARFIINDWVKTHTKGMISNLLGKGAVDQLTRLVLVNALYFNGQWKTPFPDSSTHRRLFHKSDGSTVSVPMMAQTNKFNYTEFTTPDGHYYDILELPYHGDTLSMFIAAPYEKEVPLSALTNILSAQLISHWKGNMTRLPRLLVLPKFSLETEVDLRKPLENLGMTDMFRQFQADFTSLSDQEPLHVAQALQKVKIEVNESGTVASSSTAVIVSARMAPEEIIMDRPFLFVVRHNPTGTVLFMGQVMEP
Kindly supply the reported IC50 values for the records listed here.

Cc1ccc(Cn2c3c(c4cc(-c5ccc(OC(F)(F)F)cc5)ccc42)C(=O)C(=O)OC3)cc1; 2.3 µM

# ---- query compound ----
Query: Given CC(C)(C)c1ccc(Cn2c3c(c4cc(O)ccc42)C(=O)C(=O)OC3)cc1 , respond with its IC50.
Result: 4.83 µM

###

measurement_name: melting point

Observe how each entry below is paired with its result.
Cc1ccc(Cn2c3c(c4cc(-c5cccc(C)c5)ccc42)C(=O)C(=O)OC3)cc1; 216 to 217 °C
O=C([O-])C(=O)c1c(CO)n(Cc2ccccc2)c2ccc(-c3ccc(Cl)cc3)cc12.[K+]; 225 to 226 °C

Provide each entry's melting point from the list below.
1. Cc1cccc(-c2ccc3c(c2)c2c(n3Cc3ccc(C(C)(C)C)cc3)COC(=O)C2=O)c1
2. O=C1OCc2[nH]c3ccc(OCc4ccccc4)cc3c2C1=O
3. Cc1ccc(Cn2c3c(c4cc(-c5ccc(OC(F)(F)F)cc5)ccc42)C(=O)C(=O)OC3)cc1
4. O=C1OCc2c(c3cc(-c4ccc(-c5ccccc5)cc4)ccc3n2Cc2ccccc2)C1=O

Result:
["196 to 197 °C", "> 291 °C (dec.)", "243 to 244 °C", "254 to 255 °C"]

Value sought for every listed compound: melting point.
1. Cc1ccc(Cn2c3c(c4cc(OCc5ccccc5)ccc42)C(=O)C(=O)OC3)cc1
2. O=C1OCc2c(c3cc(-c4ccc(OC(F)(F)F)cc4)ccc3n2Cc2ccccc2)C1=O

Result:
1. 206 to 207 °C
2. 239 to 240 °C
